The measured values listed here are drawn from patent US7030067B2.

assay.procedure: Surface tension measurements in tributyl phosphate
Assay type: physicochemical
assay.setup: 2000 ppm in tributyl phosphate
readout.type: Surface Tension @ 2000 ppm (dyne/cm)
Give bare numbers, in dyne/cm.

>>> observed_result("O=S(=O)([O-])C(F)(F)C(F)(F)C(F)(F)C(F)(F)C(F)(F)C(F)(F)C(F)(F)C(F)(F)F.O=S(=O)([O-])C(F)(F)C(F)(F)C(F)(F)C(F)(F)C(F)(F)C(F)(F)C(F)(F)C(F)(F)F.[Ca+2]")
26.15
>>> observed_result("O=S(=O)([N-]S(=O)(=O)C(F)(F)C(F)(F)C(F)(F)C(F)(F)F)C(F)(F)C(F)(F)C(F)(F)C(F)(F)F.[K+]")
27.34

Qu. Name the reported Surface Tension @ 2000 ppm value associated with the compound O=S(=O)([O-])C1(F)C(F)(F)C(F)(F)C(F)(C(F)(F)C(F)(F)F)C(F)(F)C1(F)F.[K+] (stereo not drawn)
Ans. 26.94
